# system: Estrogen receptor (Homo sapiens)
# test.name: qHTS assay to identify small molecule agonists of the estrogen receptor alpha (ER-alpha) signaling pathway (AID 743075);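 also: HEK293 GripTite cells with ER-alpha and UAS-driven beta-lactamase reporter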
# protocol.conditions: HEK293 ER-alpha-UAS-bla, beta-lactamase FRET ratio, 18 h
Active and inactive are the calls of the source. Calls follow the shape of the full dose curve.
Choose the fitting class; nothing outside Yes = active, No = inactive is accepted.

For orientation, consider the following solved cases.
molecule: O=c1cccccc1O
system: Estrogen receptor (Homo sapiens)
label.value: No

molecule: CN(C)c1ccc(C2(c3ccc(N(C)C)cc3)OC(=O)c3cc(N(C)C)ccc32)cc1
system: Estrogen receptor (Homo sapiens)
label.value: Yes

molecule: NNc1nc(-c2ccc(N)cc2)cs1
system: Estrogen receptor (Homo sapiens)
label.value: No

molecule: CCC(C)(C)C1CCCCC1OC(C)=O (stereo unspecified)
system: Estrogen receptor (Homo sapiens)
label.value: No

molecule: O=C1c2c(O)ccc(Nc3ccc(CCO)cc3)c2C(=O)c2c([N+](=O)[O-])ccc(O)c21
system: Estrogen receptor (Homo sapiens)
label.value: No

molecule: CN1CCN(CCC(=O)N2c3ccccc3Sc3ccc(C(F)(F)F)cc32)CC1
system: Estrogen receptor (Homo sapiens)
label.value: No

Test call, this molecule: Cc1nc(-c2ccc3c(c2)CCN(CCC2CCC(NC(=O)/C=C/c4ccc(F)cc4)CC2)CC3)no1 (stereo unspecified) Yes

Consider next the molecule "Nc1ccc(N)c2ccccc12" in the same way. No

Now the molecule "CC(C)(C)C(=O)OCOC(=O)[C@@H]1N2C(=O)[C@@H](NC(=O)[C@H](N)c3ccccc3)[C@H]2SC1(C)C" No

Consider next the molecule "Nc1ccccc1O" in the same way. No

Okay, and "CCN(CCC#N)c1ccc(N=Nc2c(Cl)cc([N+](=O)[O-])cc2Cl)cc1" ? No

Reference source for all entries: PubChem BioAssay (Tox21)
